biological target: human cyclin-dependent kinase 2 (Cdk2) (Homo sapiens, UniProt P24941); construct: poly-histidine; made in house; host or cells: E. coli; experiment: Kinetic thiol consumption assay with wild type Cdk2 (C177); format: binding; settings: model thiol glutathione
Please provide measured k(Cdk2)/k(GSH) rate enhancement for the entries that follow.
Answer with the value's number alone.

**Q:** Provide the documented k(Cdk2)/k(GSH) rate enhancement with human cyclin-dependent kinase 2 (Cdk2) (Homo sapiens, UniProt P24941) as the system for `C=CC(=O)N(c1cccc2ncccc12)C1CCC1`
**A:** 1.4

**Q:** Continue with `C=CC(=O)NCCN1CCOCC1`
**A:** 1.429

**Q:** Input `C=CC(=O)Nc1cccc(C(F)(F)F)c1`
**A:** 1.404

**Q:** Please do the same for `C=CC(=O)Nc1ccc2nc(C)[nH]c2c1` as well.
**A:** 0.9595

**Q:** Query `C=CC(=O)NCc1ccc(OC)cc1` next
**A:** 0.9011

**Q:** And then `C=CC(=O)N1CCC2(CC1)NC(=O)C1(CCCCC1)N2` , what is it?
**A:** 0.3553

**Q:** Moving on to `C=CC(=O)N1CCN(c2ccccc2C(N)=O)CC1`
**A:** 0.5575

**Q:** Also C=CC(=O)NCCNC(=O)C1CCCN1S(=O)(=O)c1ccccc1 (stereo not drawn) , if possible.
**A:** 0.3045

**Q:** Same question, `C=CC(=O)Nc1cccc(-c2nnnn2C2CC2)c1` this time
**A:** 2.77

**Q:** Would you kindly repeat that for C=CC(=O)N1CC2CCN(Cc3ccccc3)C2C1 (stereo not drawn) ?
**A:** 0.2735

**Q:** Lookup `C=CC(=O)N1CC(n2cccn2)C1`
**A:** 0.4779

**Q:** How about this compound: `C=CC(=O)N1CCC(c2nnc3n2CCC3)CC1`
**A:** 0.6367
